biological target: Vitamin D3 receptor (Homo sapiens, UniProt P11473); experiment: Antagonist activity against VP16 tagged-VDR-LBD (unknown origin) expressed in HEK293T cells assessed as inhibition of 1,25-dihydroxyvitamin D3-induced SRC1 coactivator peptide recruitment after 16 hrs by luciferase reporter gene based two hybrid assay; format: cell-based, HEK-293T
Sequence (P11473 whole entry, the tested form may be a part): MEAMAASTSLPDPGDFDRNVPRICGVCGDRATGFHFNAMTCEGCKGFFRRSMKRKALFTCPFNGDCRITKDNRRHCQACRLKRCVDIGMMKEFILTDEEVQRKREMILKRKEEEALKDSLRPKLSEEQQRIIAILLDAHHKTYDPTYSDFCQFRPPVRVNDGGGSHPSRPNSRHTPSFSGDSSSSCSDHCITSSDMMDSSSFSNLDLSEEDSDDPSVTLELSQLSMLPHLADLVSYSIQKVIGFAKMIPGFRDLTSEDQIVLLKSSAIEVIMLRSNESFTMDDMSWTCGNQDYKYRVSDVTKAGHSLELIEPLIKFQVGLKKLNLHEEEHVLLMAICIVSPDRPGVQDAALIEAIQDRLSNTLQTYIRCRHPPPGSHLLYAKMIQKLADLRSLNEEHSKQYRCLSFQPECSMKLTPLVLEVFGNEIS
Kindly state IC50 for each of the entries shown.

Task: Consider the compound C=C1/C(=C\C=C2/CCC[C@]3(C)[C@@H]([C@H](C)CC(=O)O)CC[C@@H]23)C[C@@H](O)C[C@@H]1O and give its measured IC50.
Result: > 100 µM

Task: Consider the compound C[C@H](CCC(=O)NCC(=O)O)[C@H]1CC[C@H]2[C@@H]3CC[C@@H]4C[C@H](O)CC[C@]4(C)[C@H]3CC[C@]12C [LITHOGLYCOCHOLATE] and give its measured IC50.
Result: > 50 µM

Task: Consider the compound C[C@H](CCC(=O)O[C@@H]1O[C@H](C(=O)O)[C@@H](O)[C@H](O)[C@H]1O)[C@H]1CC[C@H]2[C@@H]3CC[C@@H]4C[C@H](O)CC[C@]4(C)[C@H]3CC[C@]12C and give its measured IC50.
Result: > 150 µM

Task: Consider the compound C[C@H](CCC(=O)O)[C@H]1CC[C@H]2[C@@H]3CC[C@@H]4C[C@H](O[C@@H]5O[C@H](C(=O)O)[C@@H](O)[C@H](O)[C@H]5O)CC[C@]4(C)[C@H]3CC[C@]12C and give its measured IC50.
Result: > 150 µM

Task: Consider the compound C[C@H](CCC(=O)O)[C@H]1CC[C@H]2[C@@H]3CC[C@@H]4C[C@H](OS(=O)(=O)O)CC[C@]4(C)[C@H]3CC[C@]12C and give its measured IC50.
Result: > 50 µM

Task: Consider the compound C[C@H](CCC(=O)NCCS(=O)(=O)O)[C@H]1CC[C@H]2[C@@H]3CC[C@@H]4C[C@H](O)CC[C@]4(C)[C@H]3CC[C@]12C and give its measured IC50.
Result: > 50 µM

Task: Consider the compound C[C@H](CCC(=O)O)[C@H]1CC[C@H]2[C@@H]3[C@H](O)C[C@@H]4C[C@H](O)CC[C@]4(C)[C@H]3CC[C@]12C and give its measured IC50.
Result: > 50 µM

Task: Consider the compound CC(=O)O[C@@H]1CC[C@@]2(C)[C@H](CC[C@@H]3[C@@H]2CC[C@]2(C)[C@@H]([C@H](C)CCC(=O)O)CC[C@@H]32)C1 and give its measured IC50.
Result: > 50 µM

Task: Consider the compound C[C@H](CCC(=O)O)[C@H]1CC[C@H]2[C@@H]3[C@@H](O)C[C@@H]4C[C@H](O)CC[C@]4(C)[C@H]3CC[C@]12C and give its measured IC50.
Result: > 50 µM

Task: Consider the compound C[C@H](CCC(=O)O)[C@H]1CC[C@H]2[C@@H]3C[C@H](O)[C@@H]4C[C@H](O)CC[C@]4(C)[C@H]3CC[C@]12C and give its measured IC50.
Result: > 50 µM

Task: Consider the compound COC(=O)CC[C@@H](C)[C@H]1CC[C@H]2[C@@H]3CC[C@@H]4C[C@H](O)CC[C@]4(C)[C@H]3CC[C@]12C and give its measured IC50.
Result: 15.1 µM

Task: Consider the compound C[C@H](CCC(=O)O)[C@H]1CC[C@H]2[C@@H]3CC[C@@H]4C[C@H](O)CC[C@]4(C)[C@H]3C[C@H](O)[C@]12C and give its measured IC50.
Result: > 50 µM
